TGT: human GPR43 (Homo sapiens (Human), UniProt O15552)
Sequence (O15552 whole entry): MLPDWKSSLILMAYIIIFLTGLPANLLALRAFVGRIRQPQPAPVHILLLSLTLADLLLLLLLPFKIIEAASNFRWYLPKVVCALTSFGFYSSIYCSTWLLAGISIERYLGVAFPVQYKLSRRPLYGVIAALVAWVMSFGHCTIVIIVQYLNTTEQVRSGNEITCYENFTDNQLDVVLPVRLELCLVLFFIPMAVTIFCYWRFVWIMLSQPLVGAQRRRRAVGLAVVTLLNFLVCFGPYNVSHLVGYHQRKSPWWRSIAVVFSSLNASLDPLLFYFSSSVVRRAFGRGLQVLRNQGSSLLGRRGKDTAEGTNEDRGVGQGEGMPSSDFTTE
EXPERIMENT NOTES: Ca-Flux functional assay: determination of agonist/positive allosteric modulator (PAM) activity
MEASUREMENT CONTEXT: CHO-K1 Gα16 cells stably expressing human GPR43; compound added with EC20 sodium acetate; intracellular Ca2+ by FLIPR; does not distinguish agonist from PAM
pEC50: −log10 of the molar value.
PROPERTY NAME: pEC50

a: COC[C@H]1CCCN1c1ncnc2c(S(=O)(=O)c3ccccc3)c(N)[nH]c12 [Example 118]
b: Nc1[nH]c2c(N3CCOC(C(F)(F)F)C3)ncnc2c1S(=O)(=O)c1ccccc1 (centres unmarked) [Example 141]
// query Could you kindly indicate whether a or b has the higher pEC50 value? Bench note: the answer is the label of the chosen record.
// result b
(b: 7.92, a: 5.29)

###

TGT: human GPR43 (Homo sapiens (Human), UniProt O15552)
EXPERIMENT NOTES: Ca-Flux functional assay: determination of agonist/positive allosteric modulator (PAM) activity
MEASUREMENT CONTEXT: CHO-K1 Gα16 cells stably expressing human GPR43; compound added with EC20 sodium acetate; intracellular Ca2+ by FLIPR; does not distinguish agonist from PAM
PROPERTY NAME: EC50 (nM)

A: Nc1[nH]c2c(C3CCCCC3)ncnc2c1S(=O)(=O)c1ccc(F)cc1 [Example 27]
B: Cc1ccc(-c2ncnc3c(S(=O)(=O)c4ccccc4)c(N)[nH]c23)cc1 [Example 104]
C: Nc1[nH]c2c(N3CCO[C@H](c4ccccc4)C3)ncnc2c1S(=O)(=O)c1ccccc1 [Example 133]
D: C[C@@H](Oc1ncnc2c(S(=O)(=O)c3ccccc3)c(N)[nH]c12)c1ccccn1 [Example 162]
E: CC1CN(c2ncnc3c(S(=O)(=O)c4ccccc4)c(N)[nH]c23)CCS1 (centres unmarked) [Example 195]
// query In a descending ranking, list each entry from above by its EC50, from the largest value down to the smallest. Write out the labels following the order that was asked for.
// result D, A, B, C, E
(D: 141 nM, A: 89 nM, B: 59 nM, C: 24 nM, E: 8 nM)

A: Cc1nc(C2=CCCCC2)c2[nH]c(N)c(S(=O)(=O)c3ccccc3)c2n1 [Example 19]
B: Cc1nc(N2C[C@@H](C)OC[C@H]2C)c2[nH]c(N)c(S(=O)(=O)c3ccccc3F)c2n1 [Example 232]
C: Cc1nc(N2CCO[C@H](C)[C@@H]2C)c2[nH]c(N)c(S(=O)(=O)c3ccccc3F)c2n1 (racemic) [Example 275]
// query Let's sort these by EC50, smallest first. Go ahead? List each label, following the requested order.
// result B, C, A
(B: 3 nM, C: 5 nM, A: 28 nM)

###

TGT: UniProt O15552
EXPERIMENT NOTES: Ca-Flux functional assay: determination of agonist/positive allosteric modulator (PAM) activity
MEASUREMENT CONTEXT: CHO-K1 Gα16 cells stably expressing human GPR43; compound added with EC20 sodium acetate; intracellular Ca2+ by FLIPR; does not distinguish agonist from PAM
Experimental: Ca-Flux Functional Assay: Determination of Agonist/Positive Allosteric Modulator (PAM) Activity GPR43 agonist/PAM activity was determined by measuring changes in intracellular calcium levels using a Ca^2+ sensitive fluorescent dye. The changes in fluorescent signal were monitored by FLIPR (manufactured by Molecular Devices). GPR43 mediated increases in intracellular Ca^2+ concentration were readily detected upon activation with sodium acetate. […]
PROPERTY NAME: EC50 (nM)

// solved cases for EC50 follow
INSERT INTO results (compound, val) VALUES
  ('Nc1[nH]c2c(C3=CCCCC3)ncnc2c1S(=O)(=O)c1cccc(F)c1', 80),
  ('Nc1[nH]c2c(OCC3CCOCC3)ncnc2c1S(=O)(=O)c1ccccc1', 1890),
  ('COc1ccc(S(=O)(=O)c2c(N)[nH]c3c(N4CCO[C@@H](C(F)(F)F)C4)nc(C)nc23)c(F)c1', 2),
  ('Nc1[nH]c2c(N3CCC(F)CC3)ncnc2c1S(=O)(=O)c1ccccc1', 153),
  ('Nc1[nH]c2c(C3CCCCC3)cncc2c1S(=O)(=O)c1ccccc1', 37),
  ('CC(C)Oc1ccc(S(=O)(=O)c2c(N)[nH]c3c(N4CCOC(C)C4)ncnc23)cc1 (centres unmarked)', 53);

A: Cc1nc(N2CCOC3(CCC3)C2)c2[nH]c(N)c(S(=O)(=O)c3ccccc3F)c2n1
B: CC1CN(c2ncnc3c(S(=O)(=O)c4ccc(Cl)c(F)c4)c(N)[nH]c23)CCO1 (centres unmarked)
// query Field: lower EC50 | Options: A / B Write the label of whichever entry you select.
// result A
(A: 8 nM, B: 35 nM)
